- Test system: T-47D breast
- experimentSummary: NCI-60 one-dose screen, 48 h (100 = growth as untreated, 0 = no growth, -100 = all killed)
- measurementSetup: 10 µM unless noted
Compounds without any hit were thinned out: in the full panel of roughly 83,000, 20% have a hit.
observationType: growth (%)
Answer in %, number only, no unit symbol.

[[record]]
compound = "OC1(c2ccccc2F)c2ccccc2C2=NCCN21 (stereo unspecified)"
observedresult = 104

[[record]]
compound = "CN=C(NN)NN"
observedresult = 106

[[record]]
compound = "COC(=O)C1CC2c3ccccc3C1c1ccccc12 (stereo unspecified)"
observedresult = 102

[[record]]
compound = "O=c1[nH]c2cc(Cl)ccc2n1C1CCN(CCCC(c2ccc(F)cc2)c2ccc(F)cc2)CC1"
observedresult = 41.5


Give me measured growth, please, for this compound: CC12CCC3C(CC=C4CC(O)CCC43C)C1C/C(=C\N1CCOCC1)C2=O (stereo unspecified)
96

Give me measured growth, please, for this compound: CC(C)N=C(NC(C)C)N1CC1
111
